These data points were gathered from ChEMBL document CHEMBL1909046.

Target: C-C chemokine receptor type 2 (Homo sapiens); further: in other assays of this panel Not Active means under 50% inhibition at 10 µM
Sequence (P41597 whole entry): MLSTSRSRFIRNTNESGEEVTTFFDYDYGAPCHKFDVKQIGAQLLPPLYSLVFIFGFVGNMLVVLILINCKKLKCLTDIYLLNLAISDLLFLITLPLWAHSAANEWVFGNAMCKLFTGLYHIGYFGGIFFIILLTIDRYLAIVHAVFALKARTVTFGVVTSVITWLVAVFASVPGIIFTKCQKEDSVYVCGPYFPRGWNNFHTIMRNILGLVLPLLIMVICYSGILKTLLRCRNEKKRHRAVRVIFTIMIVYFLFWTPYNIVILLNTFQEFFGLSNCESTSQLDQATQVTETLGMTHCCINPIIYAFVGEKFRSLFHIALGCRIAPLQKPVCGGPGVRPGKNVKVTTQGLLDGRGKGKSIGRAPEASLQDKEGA
Assay type: cell membranes, CHO-K1, Membrane
Conditions: cho-k1
attribute.measured: IC50

1. NCC(=O)O [GLYCINE] | Not Active
2. CC(C)(C)NCC(O)c1ccc(O)c(CO)c1 (stereo not given) [ALBUTEROL] | Not Active
3. CCC[C@@H]1C[C@@H](C(=O)N[C@@H]([C@H]2O[C@H](SC)[C@H](O)[C@@H](O)[C@H]2O)[C@@H](C)O)N(C)C1 [LINCOMYCIN] | Not Active
4. COc1cccc(C2(O)CCCCC2CN(C)C)c1 (stereo not given) [TRAMADOL] | Not Active
5. CSc1ccc2c(c1)N(CCC1CCCCN1C)c1ccccc1S2 (stereo not given) [THIORIDAZINE] | Not Active

Prompt: Fill in the recorded IC50 for this compound, with C-C chemokine receptor type 2 (Homo sapiens) as test system: COc1c(N2CCNC(C)C2)c(F)cc2c(=O)c(C(=O)O)cn(C3CC3)c12 (stereo not given) [GATIFLOXACIN]
Response: Not Active

Prompt: Which IC50 is reported with C-C chemokine receptor type 2 (Homo sapiens) for this entry: Oc1c(Cl)cc(Cl)cc1Sc1cc(Cl)cc(Cl)c1O [BITHIONOL] ?
Response: Not Active

Prompt: IC50 of C=C1[C@@H]2CCC3[C@@](CC[C@@H]4[C@H](C(=O)O)C[C@@H](O[C@@H]5O[C@H](CO)[C@@H](OS(=O)(=O)[O-])[C@H](OS(=O)(=O)[O-])[C@H]5OC(=O)CC(C)C)C[C@@]34C)(C2)[C@@H]1O.[K+].[K+] (stereo not given in full) [ATRACTYLOSIDE] on C-C chemokine receptor type 2 (Homo sapiens)?
Response: Not Active

Prompt: Checklist item: IC50 tested on C-C chemokine receptor type 2 (Homo sapiens), entry CC=CC(=O)N(CC)c1ccccc1C , value?; further: in other assays of this panel Not Active means under 50% inhibition at 10 µM
Response: Not Active

Prompt: Any idea what IC50 came out for O=c1cc(-c2ccccc2)oc2c1ccc1ccccc12 [ALPHA-NAPHTHOFLAVONE] on C-C chemokine receptor type 2 (Homo sapiens)?
Response: Not Active

Prompt: What measured IC50 is associated with CCOC(=O)[C@H](CCc1ccccc1)N[C@@H](C)C(=O)N1[C@H](C(=O)O)C[C@@H]2CCC[C@@H]21 on C-C chemokine receptor type 2 (Homo sapiens)?
Response: Not Active

Prompt: Checklist item: IC50 tested on C-C chemokine receptor type 2 (Homo sapiens), entry CC(=O)O[C@]1(C(C)=O)CC[C@H]2[C@@H]3C=C(Cl)C4=CC(=O)CC[C@]4(C)[C@H]3CC[C@@]21C [CHLORMADINONE ACETATE] , value?; further: in other assays of this panel Not Active means under 50% inhibition at 10 µM
Response: Not Active

Prompt: Observed IC50 on C-C chemokine receptor type 2 (Homo sapiens) for Cn1cnc([N+](=O)[O-])c1Sc1ncnc2nc[nH]c12 [AZATHIOPRINE] , please.
Response: Not Active

Prompt: Give the reported IC50 for CCCC[C@@H](CC)COC(=O)c1ccccc1C(=O)OC[C@@H](CC)CCCC [BIS(2-ETHYLHEXYL)PHTHALATE] (system: C-C chemokine receptor type 2 (Homo sapiens)). Further: in other assays of this panel Not Active means under 50% inhibition at 10 µM.
Response: Not Active

Prompt: Hi! What's the reported IC50 for CCCc1cc(=O)[nH]c(=S)[nH]1 [PROPYLTHIOURACIL] on C-C chemokine receptor type 2 (Homo sapiens)?
Response: Not Active

Prompt: Reported IC50 for C-C chemokine receptor type 2 (Homo sapiens), given COC(=O)c1ccc(O)cc1 [METHYLPARABEN] ?
Response: Not Active

Prompt: Request body: readout IC50, system C-C chemokine receptor type 2 (Homo sapiens), query CN(C)CCCN1c2ccccc2CCc2ccc(Cl)cc21 [CLOMIPRAMINE] . Return the value. Further: in other assays of this panel Not Active means under 50% inhibition at 10 µM.
Response: Not Active

Prompt: Return IC50 measured with C-C chemokine receptor type 2 (Homo sapiens) given this compound: NCC[C@H](O)C(=O)N[C@@H]1C[C@H](N)[C@@H](O[C@H]2O[C@H](CN)[C@@H](O)[C@H](O)[C@H]2O)[C@H](O)[C@H]1O[C@H]1O[C@H](CO)[C@@H](O)[C@H](N)[C@H]1O [AMIKACIN]
Response: Not Active

Prompt: Kindly state the measured IC50 obtained for CCOC(=O)OC(C)OC1=C(C(=O)Nc2ccccn2)N(C)S(=O)(=O)c2ccccc21 (stereo not given) [AMPIROXICAM] with C-C chemokine receptor type 2 (Homo sapiens).
Response: Not Active

Prompt: Lab request: please report IC50 under test system C-C chemokine receptor type 2 (Homo sapiens) for COC(=O)[C@@H]1[C@H]2C[C@H]3c4[nH]c5ccccc5c4CCN3C[C@@H]2CC[C@@H]1O [YOHIMBINE]; further: in other assays of this panel Not Active means under 50% inhibition at 10 µM
Response: Not Active

Prompt: Identify the measured IC50 of COC(=O)[C@H](c1ccccc1Cl)N1CCc2sccc2C1 [CLOPIDOGREL] for C-C chemokine receptor type 2 (Homo sapiens).
Response: Not Active

Prompt: Please state recorded IC50 (tested on C-C chemokine receptor type 2 (Homo sapiens)) of C=C1C(=O)O[C@@H]2C3O[C@]3(C)CC/C=C(\C)CC[C@@H]12 (stereo not given in full); further: in other assays of this panel Not Active means under 50% inhibition at 10 µM
Response: Not Active

====

Experiment: DRUGMATRIX: GABAA, Chloride Channel, TBOB radioligand binding (ligand: [3H] TBOB)
Format: cell membranes, Rattus norvegicus, Wistar, Cerebral cortex, Membrane
Details: Not Active = under 50% inhibition at 10 µM
Where a SMILES comes first, the peptide text is derived from it. Bridges are numbered along the chain shown (N, C = ends). [ ]: non-standard residue; d: D form. The star is where a group is joined. Ileψ(thiazoline)Cys = CC[C@H](C)[C@H](N)C1=N[C@H](C(=O)*)CS1; dOrn = NCCC[C@@H](N)C(=O)O
attribute.measured: IC50

Some solved cases for reference:
1) Nc1nnc(-c2cccc(Cl)c2Cl)c(N)n1 | Not Active
2) COc1cc(C(=O)NC2CCCNC2)cc(OC)c1OC (stereo unspecified) [TROXIPIDE] | Not Active
3) CC=CC(=O)N(CC)c1ccccc1C | Not Active
4) CN1C(C(=O)Nc2ccccn2)=C(O)c2ccccc2S1(=O)=O | Not Active
5) NS(=O)(=O)c1cc2c(cc1Cl)NCNS2(=O)=O [HYDROCHLOROTHIAZIDE] | Not Active
6) CC(=O)[C@@]1(O)CC[C@H]2[C@@H]3C[C@H](C)C4=CC(=O)C=C[C@]4(C)[C@@]3(F)[C@@H](O)C[C@@]21C | Not Active
7) CC(C)(S)[C@@H](N)C(=O)O | Not Active
8) O=C1NC(=O)C(c2ccccc2)(c2ccccc2)N1 | Not Active

Prompt: Name the recorded IC50 for Nc1nc2c(ncn2COC(CO)CO)c(=O)[nH]1 .
Response: Not Active

Prompt: Item under review: COC1=CC(=O)C[C@@H](C)[C@]12Oc1c(Cl)c(OC)cc(OC)c1C2=O . Reported IC50?
Response: Not Active

Prompt: Need IC50 of Fc1ccc([C@@H]2CCNC[C@H]2COc2ccc3c(c2)OCO3)cc1 , thanks.
Response: Not Active

Prompt: // lookup IC50 for COc1ccc([C@@H]2Sc3ccccc3N(CCN(C)C)C(=O)[C@@H]2OC(C)=O)cc1
Response: Not Active

Prompt: What value of IC50 has been reported for the following compound? CC[C@H](C)[C@H](N)C1=N[C@H](C(=O)N[C@@H](CC(C)C)C(=O)N[C@H](CCC(=O)O)C(=O)N[C@H](C(=O)N[C@H]2CCCCNC(=O)[C@H](CC(N)=O)NC(=O)[C@@H](CC(=O)O)NC(=O)[C@H](Cc3cnc[nH]3)NC(=O)[C@@H](Cc3ccccc3)NC(=O)[C@H]([C@@H](C)CC)NC(=O)[C@@H](CCCN)NC2=O)[C@@H](C)CC)CS1 [BACITRACIN] ({Ileψ(thiazoline)Cys}-L[dE]IK[dOrn]I[dF]H[dD]N; lactam 4-C)
Response: Not Active

====

Biological target: Neuropeptide Y receptor type 2 (Homo sapiens, UniProt P49146); further: in other assays of this panel Not Active means under 50% inhibition at 10 µM
Sequence (P49146 whole entry): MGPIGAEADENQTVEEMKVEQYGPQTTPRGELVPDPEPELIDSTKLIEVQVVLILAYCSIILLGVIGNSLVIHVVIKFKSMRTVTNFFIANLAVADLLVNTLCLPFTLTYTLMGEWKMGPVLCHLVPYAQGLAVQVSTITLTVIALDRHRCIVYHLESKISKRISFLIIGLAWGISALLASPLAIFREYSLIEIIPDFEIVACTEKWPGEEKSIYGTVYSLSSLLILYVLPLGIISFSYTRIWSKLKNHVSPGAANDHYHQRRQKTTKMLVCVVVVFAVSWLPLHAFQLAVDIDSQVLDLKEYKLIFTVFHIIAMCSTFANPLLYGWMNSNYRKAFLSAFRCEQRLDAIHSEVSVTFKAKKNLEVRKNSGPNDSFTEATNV
Type: cell membranes, Membrane
Conditions: kan-ts
attribute.measured: IC50

1) NNC(=O)c1ccncc1 [ISONIAZID] | Not Active
2) NCC[C@H](O)C(=O)N[C@@H]1C[C@H](N)[C@@H](O[C@H]2O[C@H](CN)[C@@H](O)[C@H](O)[C@H]2O)[C@H](O)[C@H]1O[C@H]1O[C@H](CO)[C@@H](O)[C@H](N)[C@H]1O [AMIKACIN] | Not Active
3) C[C@]12Cc3c[nH]nc3C[C@@H]1CC[C@@H]1[C@@H]2CC[C@@]2(C)[C@H]1CC[C@]2(C)O [STANOZOLOL] | Not Active
